experiment: Pharmacokinetics in rats (IV and oral dosing); details: rat, in vivo, po, 10 mg/kg
# maps each entry to its bioavailability

molecule: NC[C@H]1CC[C@]2(CC1)OOC1(O2)C2CC3CC(C2)CC1C3 (stereo partly drawn)
bioavailability, %: 12.4
--
molecule: NC(=O)CNC[C@H]1CC[C@]2(CC1)OOC1(O2)C2CC3CC(C2)CC1C3 (stereo partly drawn)
bioavailability, %: 18.6
--
molecule: CC(C)(N)CNC(=O)C[C@H]1CC[C@]2(CC1)OO[C@]1(O2)C2CC3CC(C2)CC1C3
bioavailability, %: 36.9

* * *

test system: ANKA strain of P. berghei; experiment: Single dose STI in vivo screen in infected mice; design: species or system Plasmodium berghei; settings: single 10 mg/kg sc in 3% ethanol and 7% Tween 80; untreated 6-7 days
Where a name gives a salt, the structure may show the parent alone.
Label met when Survival (days) 10 mg/kg sc is strictly below 10 days; at or above that, label not met.

compound: C1C2CC3CC1CC(C2)C31OO[C@]2(CC[C@@H](CN(C[C@H]3CC[C@]4(CC3)OOC3(O4)C4CC5CC(C4)CC3C5)C3CC3)CC2)O1 (some centres unmarked)
label-class: met
//
compound: CN(C)C(=O)N[C@H]1CC[C@]2(CC1)OOC1(O2)C2CC3CC(C2)CC1C3 (some centres unmarked)
label-class: met
//
compound: CC(=O)OC(C)(C)C(=O)N[C@H]1CC[C@]2(CC1)OOC1(O2)C2CC3CC(C2)CC1C3 (some centres unmarked)
label-class: met
//
compound: CCN(CC)CC[C@H]1CC[C@]2(CC1)OOC1(O2)C2CC3CC(C2)CC1C3 (some centres unmarked) [OZ126, hydrobromide]
label-class: met
//
compound: S=C(Nc1ccccc1)N1CCC2(CC1)OOC1(O2)C2CC3CC(C2)CC1C3 (centres unmarked)
label-class: not met
//
compound: O=C(NC[C@H]1CC[C@]2(CC1)OOC1(O2)C2CC3CC(C2)CC1C3)c1c[nH]cn1 (some centres unmarked)
label-class: not met
//
compound: O=[N+]([O-])c1cccc(C2(c3cccc([N+](=O)[O-])c3)OOC3(O2)C2CC4CC(C2)CC3C4)c1 (centres unmarked)
label-class: met
//
compound: Fc1ccc(OC2CCC3(CC2)OOC2(O3)C3CC4CC(C3)CC2C4)cc1 (centres unmarked)
label-class: not met
//
compound: O=C(O)c1nccnc1C(=O)N1CCC2(CC1)OOC1(O2)C2CC3CC(C2)CC1C3 (centres unmarked)
label-class: met
//
compound: O=C1CNC(=O)N1C[C@H]1CC[C@]2(CC1)OOC1(O2)C2CC3CC(C2)CC1C3 (some centres unmarked)
label-class: met
//
compound: C1=C(c2ccccc2)CCC2(C1)OOC1(O2)C2CC3CC(C2)CC1C3 (centres unmarked)
label-class: not met
//
compound: c1ccc2c(c1)-c1ccccc1C21OOC2(O1)C1CC3CC(C1)CC2C3 (centres unmarked)
label-class: met
//
compound: COC(=O)c1ccc(C[C@H]2CC[C@]3(CC2)OOC2(O3)C3CC4CC(C3)CC2C4)cc1 (some centres unmarked)
label-class: met
//
compound: CN(C)C[C@H]1CC[C@]2(CC1)OOC1(O2)C2CC3CC(C2)CC1C3 (some centres unmarked)
label-class: met
//
compound: CC(C)(O)C[C@H]1CC[C@]2(CC1)OOC1(O2)C2CC3CC(C2)CC1C3 (some centres unmarked)
label-class: met
